Origin of the recorded values: patent US10654834B2

# target or system: human TGR5 receptor (Homo sapiens, UniProt Q8TDU6)
# Sequence (Q8TDU6 whole entry): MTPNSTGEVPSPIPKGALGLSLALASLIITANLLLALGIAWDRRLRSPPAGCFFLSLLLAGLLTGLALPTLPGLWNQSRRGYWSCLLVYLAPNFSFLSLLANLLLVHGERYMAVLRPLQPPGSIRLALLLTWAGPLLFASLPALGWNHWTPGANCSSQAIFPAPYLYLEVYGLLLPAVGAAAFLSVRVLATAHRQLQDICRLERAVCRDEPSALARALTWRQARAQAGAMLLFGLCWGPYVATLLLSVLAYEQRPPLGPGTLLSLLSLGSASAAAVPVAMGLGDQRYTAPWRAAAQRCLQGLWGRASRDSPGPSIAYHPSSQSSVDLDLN
# procedure details: Human TGR5 cAMP production assay (hTGR5-CHO cells, DiscoveRx cAMP XS+ kit)
# measurement setup: luminescent cAMP assay, read-out: Human TGR5 Lum. cAMP Activity (EC50)
Reported EC50 values are given for each entry in this list.

compound	EC50
N#Cc1ccc(CCNC(=O)[C@@H]2CCCN2c2cc(N3CCC(CCNC(=O)NCCS(=O)(=O)NCC(=O)O)CC3)nc(C(F)(F)F)n2)cc1	< 100 nM

# input compound: "COc1cnccc1-c1cc(N2CCC[C@H]2C(=O)NCCc2ccc(C#N)cc2)nc(C(F)(F)F)n1" ; wanted: its EC50
1000 to 30000 nM

# input compound: "COc1cc(-c2cc(N3CCC[C@H]3C(=O)NCCc3ccc(C#N)cc3)nc(C(F)(F)F)n2)c(Cl)cn1" ; wanted: its EC50
1000 to 30000 nM

----------
# target or system: human TGR5 receptor (Homo sapiens, UniProt Q8TDU6)
# procedure details: Human TGR5 cAMP production assay (hTGR5-CHO cells, DiscoveRx cAMP XS+ kit)
# measurement setup: luminescent cAMP assay, read-out: Human TGR5 Lum. cAMP Activity (EC50)
Reported EC50 values are given for each entry in this list.

Check out these entries, answers already filled in.
compound	result type	experimental result
O=C(NCCc1ccc(C(F)(F)F)cc1)[C@@H]1CCN1c1cc(N2CCC(CCCC3CCN(C(=O)CS(=O)(=O)O)CC3)CC2)nc(C(F)(F)F)n1	EC50	100 to 999 nM
N#Cc1ccc(CCNC(=O)[C@@H]2CCCN2c2cc(N3CCC(CCCC(=O)N[C@@H](CCCNC(=N)N)C(=O)N[C@@H](CCCNC(=N)N)C(=O)O)CC3)cc(C(F)(F)F)n2)cc1	EC50	< 100 nM
Cc1ccc(-c2cc(N3CCC[C@H]3C(=O)NCCc3ccc(C#N)cc3)nc(C(F)(F)F)n2)o1	EC50	100 to 999 nM
Cc1ccc(-c2cc(N3CCC[C@H]3C(=O)NCCc3ccc(C#N)cc3)nc(C(F)(F)F)n2)cc1	EC50	100 to 999 nM
O=C(O)CCCC1CCN(c2cc(N3CC[C@H]3C(=O)NCCc3ccc(C(F)(F)F)cc3)nc(C(F)(F)F)n2)CC1	EC50	< 100 nM
N#Cc1ccc(CCNC(=O)[C@@H]2CCCN2c2cc(N3CCC(CCCC(=O)NCCS(N)(=O)=O)CC3)nc(C(F)(F)F)n2)cc1	EC50	< 100 nM

Lab note: need EC50 for N#Cc1ccc(CCNC(=O)[C@@H]2CCCN2c2cc(N3CCC(CCCC(=O)NCCNc4ncnc5c4ncn5[C@@H]4O[C@H](CO)C(O)C4O)CC3)nc(C(F)(F)F)n2)cc1 (some centres unmarked) on human TGR5 receptor (Homo sapiens, UniProt Q8TDU6), anyone have it?
< 100 nM

Lab note: need EC50 for "N#Cc1ccc(CCNC(=O)[C@@H]2CCN2c2cc(N3CCC(CCCC(=O)NCCNC(=N)N)CC3)nc(C(F)(F)F)n2)cc1" on human TGR5 receptor (Homo sapiens, UniProt Q8TDU6), anyone have it?
< 100 nM
